# TARGET_OR_TEST_SYSTEM: MAP3K2 (human) (UniProt Q9Y2U5)
# Sequence (Q9Y2U5 whole entry, looked up): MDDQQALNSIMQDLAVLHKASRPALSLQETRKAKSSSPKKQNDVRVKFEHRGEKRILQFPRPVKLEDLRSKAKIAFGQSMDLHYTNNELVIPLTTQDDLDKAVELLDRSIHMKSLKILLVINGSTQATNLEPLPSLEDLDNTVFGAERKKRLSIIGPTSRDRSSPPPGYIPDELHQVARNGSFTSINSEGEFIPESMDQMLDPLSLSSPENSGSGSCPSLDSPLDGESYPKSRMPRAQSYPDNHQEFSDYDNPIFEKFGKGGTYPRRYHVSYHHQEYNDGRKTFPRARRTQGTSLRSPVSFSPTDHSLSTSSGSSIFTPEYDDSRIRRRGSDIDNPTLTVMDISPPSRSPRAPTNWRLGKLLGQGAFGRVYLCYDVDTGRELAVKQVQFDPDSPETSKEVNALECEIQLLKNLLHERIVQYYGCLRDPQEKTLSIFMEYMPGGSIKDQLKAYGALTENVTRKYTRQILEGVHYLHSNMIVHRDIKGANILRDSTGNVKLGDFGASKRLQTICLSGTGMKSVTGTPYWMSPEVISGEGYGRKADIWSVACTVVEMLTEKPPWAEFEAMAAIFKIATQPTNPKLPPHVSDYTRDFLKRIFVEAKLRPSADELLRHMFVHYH
# PROTOCOL_SUMMARY: radiometric filter-binding kinase assay, Kinase HotSpot
# MEASUREMENT_CONTEXT: compound 0.5 µM; ATP 10 µM
Field: residual activity. Provide a value for each of the molecules that follow.
Reply with the number, then its unit.

Ask | Hello, please tell me recorded residual activity for this one: CCC(=O)Nc1ccc2ncnc(Nc3cccc(Br)c3)c2c1
Reply | 76.1%

Ask | // fetch residual activity given entry CNc1cc2c(Nc3cccc(Br)c3)ncnc2cn1
Reply | 74.9%

Ask | Supply reported residual activity belonging to this molecule: N#C/C(=C(/N)Sc1ccc(N)cc1)c1ccccc1C(F)(F)F
Reply | 115%

Ask | Name the recorded residual activity of the item CCOC(=O)c1c(C)[nH]c(/C=C2\C(=O)Nc3ccccc32)c1C in your answer.
Reply | 108%

Ask | Find the measured residual activity of COc1ccc(COc2ccc(Cc3cnc(N)nc3N)cc2OC)cc1 and report it.
Reply | 108%

Ask | Let me know recorded residual activity for CCN(CC)C(=O)c1ccc(Nc2nc(OCC3CCCCC3)c3nc[nH]c3n2)cc1 , thanks.
Reply | 25.3%

Ask | Provide measured residual activity value, entry: Nc1cccc(-c2cc3c(Oc4cccc(O)c4)ncnc3[nH]2)c1
Reply | 86.9%

Ask | Read off the recorded residual activity for CC(C)N(CCC(=O)c1ccc2ccccc2c1)Cc1ccccc1
Reply | 107%

Ask | Provide one value: measured residual activity of O=C1NC(=O)c2c1c1c3ccccc3n3c1c1c2c2ccccc2n1C1CCC3O1
Reply | 14%

Ask | Report residual activity, nothing else, for this molecule: O=C1Nc2ccc(Cl)cc2/C1=C/c1cc(Cl)c(O)c(Cl)c1
Reply | 95.7%

Ask | Assign residual activity to the following record: Cc1ccc(NC2=CC(=O)c3sc(C)nc3C2=O)cc1
Reply | 93.3%

====

Kindly state residual activity for each of the entries shown.
# TARGET_OR_TEST_SYSTEM: DCLK2 (human)
# PROTOCOL_SUMMARY: radiometric filter-binding kinase assay, Kinase HotSpot
# MEASUREMENT_CONTEXT: compound 0.5 µM; ATP 10 µM
Answer format: numeric, % implied, no suffix.

Ask | Send back DCLK2 (human) residual activity of Cc1ccc(Nc2nccc(N(C)c3ccc4c(C)n(C)nc4c3)n2)cc1S(N)(=O)=O only.
Reply | 102

Ask | # assay system DCLK2 (human): give residual activity of CNc1cc2c(Nc3cccc(Br)c3)ncnc2cn1
Reply | 90.4

Ask | Jot down residual activity (DCLK2 (human)) of O=C1NC(=O)C(c2cn(CCCn3ccnc3)c3ccccc23)=C1Nc1ccccc1 .
Reply | 96.3

====

# TARGET_OR_TEST_SYSTEM: UniProt:Q9H093
# Sequence (Q9H093 whole entry, looked up): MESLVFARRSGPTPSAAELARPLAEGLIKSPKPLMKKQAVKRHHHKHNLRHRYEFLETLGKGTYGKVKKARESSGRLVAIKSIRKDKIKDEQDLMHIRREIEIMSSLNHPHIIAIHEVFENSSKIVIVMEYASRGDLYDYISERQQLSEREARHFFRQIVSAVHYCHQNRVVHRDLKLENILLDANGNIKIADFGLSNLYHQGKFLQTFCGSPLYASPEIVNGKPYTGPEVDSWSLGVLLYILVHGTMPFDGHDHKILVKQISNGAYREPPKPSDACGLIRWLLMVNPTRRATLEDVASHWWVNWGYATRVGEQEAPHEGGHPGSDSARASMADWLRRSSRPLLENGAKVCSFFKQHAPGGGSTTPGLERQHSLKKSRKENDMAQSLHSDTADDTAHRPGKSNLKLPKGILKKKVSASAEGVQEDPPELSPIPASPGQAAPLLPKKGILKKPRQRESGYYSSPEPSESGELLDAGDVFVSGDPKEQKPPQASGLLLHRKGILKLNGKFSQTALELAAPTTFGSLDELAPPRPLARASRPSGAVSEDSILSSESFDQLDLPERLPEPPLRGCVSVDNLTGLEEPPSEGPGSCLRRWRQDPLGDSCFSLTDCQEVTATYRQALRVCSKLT
# PROTOCOL_SUMMARY: radiometric filter-binding kinase assay, Kinase HotSpot
# MEASUREMENT_CONTEXT: compound 0.5 µM; ATP 10 µM
MEASURED_PROPERTY: residual activity (%)
Give a bare numeral; the unit % is implied.

Ask | Retrieve residual activity measured for Oc1cccc(-c2nc(N3CCOCC3)c3oc4ncccc4c3n2)c1 and print it.
Reply | 75.3

Ask | Specify measured residual activity for CCCC(=O)Oc1ccc2[nH]c(C(=O)c3cc4ccccc4[nH]3)cc2c1 .
Reply | 73.4

Ask | For the molecule O=C(Nc1cccc(Nc2nccc(Nc3cccc(C(F)(F)F)c3)n2)c1)C1CC1 , give its reported residual activity.
Reply | 94.3

Ask | Give residual activity for the following molecule: CC(C)N(CCC(=O)c1ccc2ccccc2c1)Cc1ccccc1
Reply | 85.4
